Tested on: Human fibroblast BJ1
Assay: Drug sensitivity assay, human fibroblast BJ1 (CellTiter-Glo)
Type: cell-based
Settings: iron-free compound; Human fibroblast BJ1; 48 h; read-out: EC50 –Fe
readout: EC50

Name the recorded EC50 of the molecule listed here: CC(=O)N(O)CCCCCNC(=O)CCC(=O)N(O)CCCCCNC(=O)CCC(=O)N(O)CCCCCN [DFO, Deferoxamine, reference compound] > 100 µM

###

Tested on: L. major (promastigote)
Experiment: Drug sensitivity assay, L. major promastigote (flow cytometry)
Type: cell-based
Conditions: Leishmania major; iron-free compound; L. major (promastigote); 120 h; read-out: EC50 –Fe
readout: EC50

With L. major (promastigote) as the test system, provide measured EC50 for this molecule: CC(=O)N(O)CCCCCNC(=O)CCC(=O)N(O)CCCCCNC(=O)CCC(=O)N(O)CCCCCN [DFO, Deferoxamine, reference compound] > 25 µM
